Please go through the items and note down their target mRNA inhibition.
- measured-on: DGAT2
- test-conditions: ASO, HepG2, 2.5 µM
After the bases stand the sugars from the 5' end (letter, count) and the backbone: PS all phosphorothioate, else s phosphorothioate and o phosphodiester by linkage. Methylation of C is not given here. e = 2'-O-(2-methoxyethyl) (MOE); d = 2'-deoxy (DNA)
Write down the numeric answer in % and omit the unit.

q: GET /values?readout=target mRNA inhibition&item= CAGAAGAGCAAAGGCTTGCT (sugars e5 d10 e5, PS)
a: 50

q: GET /values?readout=target mRNA inhibition&item= GTTCTTCCAACCAGTGTTTG (sugars e5 d10 e5, PS)
a: 47

q: GET /values?readout=target mRNA inhibition&item= TGCGCGATTCACTGAGGACC (sugars e5 d10 e5, PS)
a: 51

q: GET /values?readout=target mRNA inhibition&item= GTGGTCAGCAGGTTGTGTGT (sugars e5 d10 e5, PS)
a: 0

q: GET /values?readout=target mRNA inhibition&item= GCAGGTTCATCTGCCTT (sugars e3 d10 e4, PS)
a: 54

q: GET /values?readout=target mRNA inhibition&item= GTCACTGACTCACAACAGCA (sugars e5 d10 e5, PS)
a: 58

q: GET /values?readout=target mRNA inhibition&item= TCACATGCCTGAGGGCAGCA (sugars e5 d10 e5, PS)
a: 66

q: GET /values?readout=target mRNA inhibition&item= GCTTCACCAGGGCCTCCATG (sugars e5 d10 e5, PS)
a: 34

q: GET /values?readout=target mRNA inhibition&item= TACCTGCTATGCTGAGAGCA (sugars e5 d10 e5, PS)
a: 65

q: GET /values?readout=target mRNA inhibition&item= GTTGCCATCATACTAGACTA (sugars e5 d10 e5, PS)
a: 65

q: GET /values?readout=target mRNA inhibition&item= TAACCACAGCGATAATCACA (sugars e5 d10 e5, PS)
a: 60

q: GET /values?readout=target mRNA inhibition&item= GGACCCACTGGAGCACTGAG (sugars e5 d10 e5, PS)
a: 14

q: GET /values?readout=target mRNA inhibition&item= TTTCCATTTTTTACCCAACC (sugars e5 d10 e5, PS)
a: 54

q: GET /values?readout=target mRNA inhibition&item= GAGGCCAAGGACAGAGGTTC (sugars e5 d10 e5, PS)
a: 66

q: GET /values?readout=target mRNA inhibition&item= GATCTCAGTCACTGACTCAC (sugars e5 d10 e5, PS)
a: 57

q: GET /values?readout=target mRNA inhibition&item= CCACTGTTGCTGAGCTCATG (sugars e5 d10 e5, PS)
a: 68

q: GET /values?readout=target mRNA inhibition&item= CTCAGTCACTGACTCACAAC (sugars e5 d10 e5, PS)
a: 54

q: GET /values?readout=target mRNA inhibition&item= ATCCATGTCAGAGAGGCTCA (sugars e5 d10 e5, PS)
a: 66

q: GET /values?readout=target mRNA inhibition&item= CCCGGAGTAGGCGGCTATGA (sugars e5 d10 e5, PS)
a: 60

q: GET /values?readout=target mRNA inhibition&item= GGGACTCAGTGTCCTCCTTA (sugars e5 d10 e5, PS)
a: 69

q: GET /values?readout=target mRNA inhibition&item= GCATGCTTCCTCCCACTTCA (sugars e5 d10 e5, PS)
a: 84

q: GET /values?readout=target mRNA inhibition&item= TGGCTTCCTCAGGGCCCACC (sugars e5 d10 e5, PS)
a: 79

q: GET /values?readout=target mRNA inhibition&item= GGATAGTCGATTTACCAGAA (sugars e5 d10 e5, PS)
a: 69
